- System: SEM cells
- protocol_details: AUC of viability dose-response curve (% viability x log10 dose units); higher = less sensitive
- assay_context: RPMI 5 mM glucose + 10% FBS; 48 h
property_label: AUC of viability dose-response curve
No unit in the answer, please; the number alone is enough.

I have this compound here, CC/1=C(/N2[C@H](SC1)[C@H](NC(=O)[C@H](N)\C3=C\C\C=C/C3)C2=O)C(O)=O , and I need its recorded AUC of viability dose-response curve. 470

###

- Tested on: SEM cells
- protocol_details: cell viability relative to DMSO control; higher = less cytotoxic
- assay_context: RPMI 5 mM glucose + 10% FBS; 48 h; 0.19 µM
Each item that follows carries a reported cell viability.
Provide only the numeric value, understood in %.

# input compound: COc1ccc(C2CNC(=O)C2)cc1OC1CCCC1 (centres undefined) ; wanted: its cell viability 95.3

Query: cell viability; subject: C[C@@]12C[C@@]3(O)O[C@@H](O1)[C@]1(COC(=O)c4ccccc4)[C@H]3C[C@@]12O[C@@H]1O[C@H](CO)[C@@H](O)[C@H](O)[C@H]1O 92.6

Fill in the blank: the reported cell viability of Nc1nc(N)c2nc(CNc3ccc(C(=O)NC(CCC(=O)O)C(=O)O)cc3)cnc2n1 (centres undefined) is ____. 56.5

Consider the additional compound presented here.
// returns reported cell viability for input N[C@H](CSC(c1ccccc1)(c1ccccc1)c1ccccc1)C(=O)O 60.9

###

- System: SEM cells
- protocol_details: cell viability relative to DMSO control; higher = less cytotoxic
- assay_context: RPMI 5 mM glucose + 10% dialyzed FBS; 48 h; 0.000781 µM
property_label: cell viability (%)
Answer with a number only, understood to be in %.

Name the recorded cell viability for CNC(=O)c1ccc(N2C(=S)N(c3ccc(C#N)c(C(F)(F)F)c3)C(=O)C23CCC3)cc1F . 84.3

Fill in the blank: the reported cell viability of Cc1cnc(NC(=O)Nc2cc(Br)c(C)cc2OC[C@@H]2CNCCO2)cn1 is ____. 108

Which measured cell viability value corresponds to OC1=CC2=C(C(=C1)O)C(=O)\C=C(/O2)C3=CC=CC=C3 ? 85.8

For the molecule O=C(O)c1ccc2c(c1)nc(Nc1cccc(Cl)c1)c1ccncc12 , what cell viability is on record? 103

Would you mind telling me what cell viability value was observed for COCCCN1CCC(NC(=O)c2cc(Cl)c(N)c3c2OCC3)CC1 ? 118

Next:
Given the entry OC(CN1CCC(Cc2ccc(F)cc2)CC1)c1ccc(Cl)cc1 (centres undefined) , report its measured cell viability. 116

Param item = CNC1CCC(N(Cc2cccc(-c3ccncc3)c2)C(=O)c2sc3c(F)ccc(F)c3c2Cl)CC1 (centres undefined) ; retrieve measured cell viability. 93.7

Return reported cell viability; argument: C[C@@H]\1CC(=O)N\N=C1C2=CC=C(NN=C(C#N)C#N)C=C2 73.5

Consider the molecule COc1cc(OC)c(/C=C/[S+](=O)([O-])Cc2ccc(OC)c(NCC(=O)[O][Na])c2)c(OC)c1 and give its measured cell viability. 121

###

- Test system: SEM cells
- protocol_details: AUC of viability dose-response curve (% viability x log10 dose units); higher = less sensitive
- assay_context: RPMI 5 mM glucose + 10% dialyzed FBS; 48 h
Each record here notes measured AUC of viability dose-response curve.

Consider the following illustrative entries.
Sample O=C(O)C1=NC(C(=O)O)CC(/C=C/N2c3cc(O)c(OC4OC(CO)C(O)C(O)C4O)cc3CC2C(=O)O)=C1 (stereo unspecified) — what was its AUC of viability dose-response curve? 461

Any idea what its AUC of viability dose-response curve is? The compound is COc1cc2c(cc1OC)CC(=O)N(CCCN(C)C[C@H]1Cc3cc(OC)c(OC)cc31)CC2.Cl 469

Quick one: AUC of viability dose-response curve for Cc1ccc([S+](=O)([O-])N[C@@H](Cc2ccccc2)C(=O)CCl)cc1 ? 420

Next:
I'd like to know its AUC of viability dose-response curve. The compound in question is CNc1nccc(-c2cccnc2Oc2cc(C(=O)Nc3cccc(C(F)(F)F)c3)ccc2C)n1 461

# AUC of viability dose-response curve lookup, item CCN1\C=C(\C(O)=O)C(=O)C2=CC=C(C)N=C12 410

Using the record for Cc1cc2c(F)c(Oc3ncnn4cc(OC[C@@H](C)O)c(C)c34)ccc2[nH]1 , report its AUC of viability dose-response curve. 380

###

# cell viability annotations
- Test system: SEM cells
- protocol_details: cell viability relative to DMSO control; higher = less cytotoxic
- assay_context: RPMI 5 mM glucose + 10% dialyzed FBS; 48 h; 0.00234 µM
Output spec: scalar in %, unitless text.

Record request: cell viability value, item CC/1=C(/N2[C@H](SC1)[C@H](NC(=O)[C@H](N)\C3=C\C\C=C/C3)C2=O)C(O)=O 112

***
Return reported cell viability; argument: CC(C)C1=C(O)C=C(O)C(=C1)C/2=N/NC(=O)N2C3=CC4=C(C=C3)[N](C)C=C4 112

If you can, please state the reported cell viability value of S=P(N1CC1)(N1CC1)N1CC1 . 108

Given OC(CN1CCC(Cc2ccc(F)cc2)CC1)c1ccc(Cl)cc1 (centres undefined) , state its recorded cell viability. 125

Would you mind telling me what cell viability value was observed for COc1cc2ncnc(Nc3ccc(F)c(Cl)c3)c2cc1NC(=O)/C=C/CN1CCCCC1 ? 85.6

cell viability lookup needed for OC1CCC(Nc2ncc3nc(Nc4c(F)cc(F)cc4F)n([C@@H]4CCOC4)c3n2)CC1 (some centres undefined) , thanks. 111

Item Cn1c(CNc2ccc(C(=N)N)cc2)nc2cc(C(=O)N(CCC(=O)O)c3ccccn3)ccc21 has what recorded cell viability? 98

Item O=C1c2c(O)ccc(O)c2C(=O)c2c(NCCNCCO)ccc(NCCNCCO)c21 has what recorded cell viability? 89

// lookup cell viability for COc1cc2ncnc(Nc3cc(Br)c(O)c(Br)c3)c2cc1OC 99.2

###

- Tested on: NOMO1
- protocol_details: cell viability relative to DMSO control; higher = less cytotoxic
- assay_context: RPMI 5 mM glucose + 10% FBS; 48 h; 0.00234 µM
Overview of reported cell viability across a group of compounds:
Give the value, in units of %, as a plain number.

Item: O=C(O)C1=NC(C(=O)O)CC(/C=C/N2c3cc(O)c(OC4OC(CO)C(O)C(O)C4O)cc3CC2C(=O)O)=C1 (centres undefined) Test system: NOMO1 Read-out: cell viability Value: ? 86.7

Reported cell viability for NOMO1, given O=C(Nc1ccccc1-c1cn2c(CN3CCNCC3)csc2n1)c1cnc2ccccc2n1 ? 80.6

Give recorded cell viability with NOMO1 for the following compound: CCN1\C=C(\C(O)=O)C(=O)C2=CC=C(C)N=C12 103

// lookup cell viability | system=NOMO1 | key= N=C(NCCCCCCNC(=N)NC(=N)Nc1ccc(Cl)cc1)NC(=N)Nc1ccc(Cl)cc1 92.9

Please provide the recorded cell viability for CCC(C)(Oc1ccc(C2(c3ccc(OC(C)(CC)C(=O)O)cc3)CCCCC2)cc1)C(=O)O (centres undefined) , tested on NOMO1. 101

Look up cell viability with NOMO1 for this compound: CCn1c(-c2nonc2N)nc2cnc(Oc3cccc(NC(=O)c4ccc(OCCN5CCOCC5)cc4)c3)cc21 98.6

# query: cell viability | item CN(NC(=O)CC(=O)NN(C)C(=S)c1ccccc1)C(=S)c1ccccc1 | system: NOMO1 80.2

What measured cell viability is associated with Cc1cnc(NC(=O)Nc2cc(Br)c(C)cc2OC[C@@H]2CNCCO2)cn1 on NOMO1? 120

So what cell viability did O=C(c1ccc(Nc2nccc(-c3cc4ccccc4s3)n2)cc1)N1CCC(N2CCCC2)CC1 get with NOMO1? 126

###

- System: NOMO1
- protocol_details: cell viability relative to DMSO control; higher = less cytotoxic
- assay_context: HPLM + 10% dialyzed FBS; 48 h; 0.000781 µM
Listing: cell viability of selected molecules
Supply the numeric figure in %, leaving out any unit text.

Answered examples (3):
Form field: reported cell viability of Cc1cnc(-c2cc(N3CCN(C(=O)CC[S+](C)(=O)[O-])CC3)ncc2Cl)c(C)c1 96.3

Entry under review: Cn1c(CNc2ccc(C(=N)N)cc2)nc2cc(C(=O)N(CCC(=O)O)c3ccccn3)ccc21 . Reported cell viability? 109

What value of cell viability has been recorded for this entry: C/C=C(/C)C(=O)O[C@H]1C(C)=C[C@]23C(=O)[C@@H](C=C(CO)[C@@H](O)[C@]12O)[C@H]1[C@@H](C[C@H]3C)C1(C)C 119

Now consider a different molecule.
Find the recorded cell viability belonging to O=C(O)c1ccc2c(c1)nc(Nc1cccc(Cl)c1)c1ccncc12 and report it. 114

###

cell viability overview
- Test system: NOMO1
- protocol_details: cell viability relative to DMSO control; higher = less cytotoxic
- assay_context: RPMI 5 mM glucose + 10% dialyzed FBS; 48 h; 0.00702 µM
Express the result in % but write the number alone.

Record lookup: for NOMO1, what cell viability belongs to OC[C@H]1OCC(O1)[N@@]2C=CC(N)=NC2=O (stereo partly specified) ? 112

NOMO1 / cell viability / CC(C)CC(=O)N[C@H](C(=O)N[C@H](C(=O)N[C@@H](CC(C)C)[C@@H](O)CC(=O)N[C@@H](C)C(=O)N[C@@H](CC(C)C)[C@@H](O)CC(=O)O)C(C)C)C(C)C : value? 111

More entries:
Which measured cell viability belongs to CCOC(=O)C/1=C(O)/C(=O)N(CC2=CC=CC=C2)C1 , tested on NOMO1? 110

Record C[S+]([O-])(=O)C1=CC=C(C=C1)C/2=C(/C(=O)OC2)C3=CC=CC=C3 : what is its cell viability with NOMO1? 106

Any idea what cell viability came out for C[C@@H]\1CC(=O)N\N=C1C2=CC=C(NN=C(C#N)C#N)C=C2 on NOMO1? 93.4

# value lookup — system NOMO1, readout cell viability, item CSCC[C@@H](NC(=O)[C@@H](Cc1ccccc1)NC(=O)CNC(=O)CNC(=O)[C@@H](N)Cc1ccc(O)cc1)C(=O)O 94.6

Notebook: pull reported cell viability for NOMO1, entry CC(C)C(=O)Oc1ccc(CO)cc1[C@H](CCN(C(C)C)C(C)C)c1ccccc1 86.4

Kindly state the measured cell viability obtained for CCn1c(-c2nonc2N)nc2cnc(Oc3cccc(NC(=O)c4ccc(OCCN5CCOCC5)cc4)c3)cc21 with NOMO1. 110
